experimental protocol: Stability in human plasma
Assay type: in vitro ADME
measurement conditions: read-out: Plasma Stability T1/2
Cut-off 2 h on half-life at 2 μM: below means true, at or above means false.

Below, 5 compounds whose answers are already recorded.
CS(=O)(=O)c1ccc(-c2cccc(Oc3[nH]nnc3C(=O)O)c2)cc1
false
CC(C)=Cc1ccc(Oc2[nH]nnc2C(=O)O)cc1
true
Cc1ccc(-c2ccc(Sc3[nH]nnc3C(=O)O)cc2)cc1
true
O=C(O)c1nn[nH]c1Oc1ccc(C2CCC2)cc1
true
COc1ccc(-c2ccc(Oc3[nH]nnc3C(=O)O)cc2)cc1
false

Ask: Is the reported half-life at 2 μM for O=C(O)c1nn[nH]c1Oc1cccc(-c2ccccc2)c1 strictly below 2 h?
Result: false

Ask: Is the reported half-life at 2 μM for O=C(O)c1nn[nH]c1Oc1ccc(C2CC2)cc1 strictly below 2 h?
Result: true

Ask: Is the reported half-life at 2 μM for O=C(O)c1nn[nH]c1Oc1cccc(-c2ccc(Cl)c(Cl)c2)c1 strictly below 2 h?
Result: false

Ask: Is the reported half-life at 2 μM for O=C(O)c1nn[nH]c1Oc1cccc(-c2ccccc2F)c1 strictly below 2 h?
Result: false

Ask: Is the reported half-life at 2 μM for O=C(O)c1nn[nH]c1Oc1ccc(-c2ccccc2F)cc1 strictly below 2 h?
Result: true

Ask: Is the reported half-life at 2 μM for COc1cccc(-c2ccc(Oc3[nH]nnc3C(=O)O)cc2)c1 strictly below 2 h?
Result: false

Ask: Is the reported half-life at 2 μM for O=C(O)c1nn[nH]c1Oc1ccc(-c2ccc(F)cc2)cc1 strictly below 2 h?
Result: false

Ask: Is the reported half-life at 2 μM for O=C(O)c1nn[nH]c1Oc1cccc(C2CCC2)c1 strictly below 2 h?
Result: false

Ask: Is the reported half-life at 2 μM for Cc1ccc(-c2cccc(Oc3[nH]nnc3C(=O)O)c2)cc1 strictly below 2 h?
Result: false

Ask: Is the reported half-life at 2 μM for COc1ccc(-c2cccc(Oc3[nH]nnc3C(=O)O)c2)cc1 strictly below 2 h?
Result: false

Ask: Is the reported half-life at 2 μM for O=C(O)c1[nH]nnc1Oc1ccc(Cl)c(Cl)c1 strictly below 2 h?
Result: false

###

experimental protocol: Solubility in phosphate buffered saline (PBS), pH 7.4
Format: physicochemical
measurement conditions: phosphate buffer (PBS), aqueous buffer, kinetic from dmso stock; phosphate buffered saline pH 7.4, 1% DMSO, 1 hour shaking at room temperature
observable: solubility at 1 h (µM)
Give the value, in units of µM, as a plain number.

O=C(O)c1nn[nH]c1Oc1cccc(-c2ccc(Cl)cc2)c1
104

Value of solubility at 1 h reported for the molecule O=C(O)c1nn[nH]c1Oc1cccc(-c2cccc(Cl)c2)c1 is 102

Value of solubility at 1 h reported for the molecule O=C(O)c1nn[nH]c1Oc1ccc(-c2ccccc2)cc1 is 95.7

Value of solubility at 1 h reported for the molecule CC(C)=Cc1cccc(Oc2[nH]nnc2C(=O)O)c1 is 92.6

Value of solubility at 1 h reported for the molecule O=C(O)c1nn[nH]c1Oc1ccc(-c2ccccc2F)cc1 is 89.8

Value of solubility at 1 h reported for the molecule O=C(O)c1nn[nH]c1Sc1ccc(-c2ccccc2)cc1 is 122

Value of solubility at 1 h reported for the molecule COc1cccc(-c2ccc(Oc3[nH]nnc3C(=O)O)cc2)c1 is 106

Value of solubility at 1 h reported for the molecule O=C(O)c1nn[nH]c1Oc1ccc(C2CCC2)cc1 is 115

Value of solubility at 1 h reported for the molecule O=C(O)c1nn[nH]c1Oc1cccc(-c2cccnc2)c1 is 93.1

###

experimental protocol: Solubility in phosphate buffered saline (PBS), pH 7.4
Type: physicochemical
measurement conditions: phosphate buffer (PBS), aqueous buffer, kinetic from dmso stock; phosphate buffered saline pH 7.4, 1% DMSO, 1 hour shaking at room temperature
Reported solubility at 1 h by item:
Give the value, in units of µM, as a plain number.

Worked cases, answers included:
O=C(O)c1[nH]nnc1Oc1ccc(C2CCCCC2)cc1
96.5
O=C(O)c1[nH]nnc1Oc1ccc(Cl)c(Cl)c1
120
Cc1ccc(-c2ccc(Oc3[nH]nnc3C(=O)O)cc2)cc1
83.2
COc1ccc(-c2cccc(Oc3[nH]nnc3C(=O)O)c2)cc1
110

Value of solubility at 1 h reported for the molecule O=C(O)c1nn[nH]c1Oc1ccc(C2CCCC2)cc1 is 107

###

Reported recovery at 5 h, 1 μM by item:
experimental protocol: Protein binding (plasma equilibrium dialysis)
Assay type: in vitro ADME
measurement conditions: 5 hours at 37° C.
Give the value, in units of %, as a plain number.

Worked cases, answers included:
Cc1ccc(-c2cccc(Oc3[nH]nnc3C(=O)O)c2)cc1
98.2
O=C(O)c1nn[nH]c1Oc1ccc(Cl)cc1
123

Continue with the next compound.
Value of recovery at 5 h, 1 μM reported for the compound O=C(O)c1nn[nH]c1Oc1cccc(-c2ccc(Cl)c(Cl)c2)c1 is 102

###

Reported solubility at 1 h by item:
experimental protocol: Solubility in aqueous solution (deionized, distilled water)
Assay type: physicochemical
measurement conditions: kinetic from dmso stock, 1% DMSO, read-out: Aqueous Solubility H2O
Give the value, in units of µM, as a plain number.

Value of solubility at 1 h reported for the molecule O=C(O)c1nn[nH]c1Oc1ccc(-c2ccccc2)cc1 is 83.1

###

target or test system: recombinant full-length human hydroxyacid oxidase 1 (HAO1), the equivalent of hGOX (Homo sapiens (Human), UniProt Q9UJM8)
Sequence (Q9UJM8 whole entry): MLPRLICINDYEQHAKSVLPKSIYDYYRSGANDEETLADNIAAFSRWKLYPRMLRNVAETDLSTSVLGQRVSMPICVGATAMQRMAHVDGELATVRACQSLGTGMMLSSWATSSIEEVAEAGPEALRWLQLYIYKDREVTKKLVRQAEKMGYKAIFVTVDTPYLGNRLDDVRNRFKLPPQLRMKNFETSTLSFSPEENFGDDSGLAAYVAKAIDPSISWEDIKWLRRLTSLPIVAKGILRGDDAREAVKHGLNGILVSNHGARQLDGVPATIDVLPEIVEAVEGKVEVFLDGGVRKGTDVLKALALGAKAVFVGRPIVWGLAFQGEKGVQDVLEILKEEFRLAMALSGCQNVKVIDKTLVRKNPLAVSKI
experimental protocol: In-vitro human glycolate oxidase (hGOX) assay (Amplex red/HRP fluorescence)
Format: biochemical
measurement conditions: 12.5 nM HAO1, 85 μM glycolate, 2.5% DMSO; read-out: IC50
Reported IC50 by item:

Worked cases, answers included:
COc1cc(OC)cc(-c2ccc(Oc3[nH]nnc3C(=O)O)cc2)c1
1080 nM
CCc1cccc(Oc2[nH]nnc2C(=O)O)c1
79 nM
C=Cc1cccc(Oc2[nH]nnc2C(=O)O)c1
89 nM
CC(C)Cc1cccc(Oc2[nH]nnc2C(=O)O)c1
76 nM
O=C(O)c1[nH]nnc1Oc1ccc(F)c(F)c1
88 nM

Value of IC50 reported for the molecule COc1ccc(Sc2[nH]nnc2C(=O)O)cc1 is 140 nM

Value of IC50 reported for the molecule O=C(O)c1nn[nH]c1Oc1cccc(-c2ccc(OC(F)(F)F)c(F)c2)c1 is 27 nM

Value of IC50 reported for the molecule O=C(O)c1nn[nH]c1Oc1cccc(-c2ccc3c(c2)OCO3)c1 is 2 nM

Value of IC50 reported for the molecule CCOC(=O)c1nn[nH]c1Sc1ccc(Br)cc1 is > 500000 nM

Value of IC50 reported for the molecule O=C(O)c1nn[nH]c1Oc1ccc(-c2ccc(OC(F)(F)F)c(F)c2)cc1 is 5 nM

Value of IC50 reported for the molecule Cc1ccc(Sc2[nH]nnc2C(=O)O)c(C)c1 is 230 nM

Value of IC50 reported for the molecule O=C(O)c1nn[nH]c1Oc1cccc(N2CCCCC2)c1 is 370 nM

Value of IC50 reported for the molecule O=C(O)c1nn[nH]c1Oc1cccc(N2CCCCCC2)c1 is 222 nM

Value of IC50 reported for the molecule O=C(O)c1nn[nH]c1Sc1nc2ccccc2s1 is 4860 nM

Value of IC50 reported for the molecule O=C(O)c1nn[nH]c1Oc1ccccc1 is 360 nM

###

experimental protocol: Solubility in phosphate buffered saline (PBS), pH 7.4
Format: physicochemical
measurement conditions: phosphate buffer (PBS), aqueous buffer, kinetic from dmso stock; phosphate buffered saline pH 7.4, 1% DMSO, 1 hour shaking at room temperature
observable: solubility at 1 h (µM)
Give the value, in units of µM, as a plain number.

Worked cases, answers included:
N#Cc1cccc(-c2ccc(Oc3[nH]nnc3C(=O)O)cc2)c1 [Example I-256]
90.5
O=C(O)c1nn[nH]c1Oc1cccc(-c2cc(Cl)cc(Cl)c2)c1 [Example I-302]
112
Cc1cc(Oc2[nH]nnc2C(=O)O)ccc1Cl [Example I-258]
95.8
O=C(O)c1nn[nH]c1Oc1cccc(-c2ccccc2F)c1 [Example I-254]
114
CCCC(C)c1cccc(Oc2[nH]nnc2C(=O)O)c1 (stereo not shown) [Example I-277]
113

Value of solubility at 1 h reported for the compound O=C(O)c1nn[nH]c1Oc1cncc(-c2ccccc2)c1 [Example I-262] is 97.2

Value of solubility at 1 h reported for the compound O=C(O)c1nn[nH]c1Oc1cccc(-c2ccc(Cl)c(Cl)c2)c1 [Example I-255] is 97.1

###

target or test system: glycolate oxidase (GOX) in HepaRG-CAR cells (Homo sapiens (Human), UniProt Q9UJM8)
Sequence (Q9UJM8 whole entry): as above
experimental protocol: HepaRG-CAR cell-based assay for quantitation of glycolate oxidase inhibition (cellular glycolate flux, GC-MS)
measurement conditions: HepaRG-CAR cells, 500 μM glycolate, 48 hours incubation; read-out: IC50
pIC50: −log10 of the molar value.
Reported pIC50 by item:

Worked cases, answers included:
O=C(O)c1[nH]nnc1Oc1ccc(-c2ccc(Cl)c(Cl)c2)cc1
< 5.00
O=C(O)c1nn[nH]c1Oc1ccc(-c2ccccc2F)cc1
5.52
O=C(O)c1nn[nH]c1Oc1cncc(-c2cccnc2)c1
< 5.00
O=C(O)c1nn[nH]c1Oc1ccc(-c2ccccn2)cc1
< 5.00

Value of pIC50 reported for the compound O=C(O)c1nn[nH]c1Oc1ccc(-c2ccc(Br)cc2)cc1 is < 5.00
